Assay system: Excitatory amino acid transporter 3 (Rattus norvegicus, UniProt P51907)
Sequence (P51907 whole entry): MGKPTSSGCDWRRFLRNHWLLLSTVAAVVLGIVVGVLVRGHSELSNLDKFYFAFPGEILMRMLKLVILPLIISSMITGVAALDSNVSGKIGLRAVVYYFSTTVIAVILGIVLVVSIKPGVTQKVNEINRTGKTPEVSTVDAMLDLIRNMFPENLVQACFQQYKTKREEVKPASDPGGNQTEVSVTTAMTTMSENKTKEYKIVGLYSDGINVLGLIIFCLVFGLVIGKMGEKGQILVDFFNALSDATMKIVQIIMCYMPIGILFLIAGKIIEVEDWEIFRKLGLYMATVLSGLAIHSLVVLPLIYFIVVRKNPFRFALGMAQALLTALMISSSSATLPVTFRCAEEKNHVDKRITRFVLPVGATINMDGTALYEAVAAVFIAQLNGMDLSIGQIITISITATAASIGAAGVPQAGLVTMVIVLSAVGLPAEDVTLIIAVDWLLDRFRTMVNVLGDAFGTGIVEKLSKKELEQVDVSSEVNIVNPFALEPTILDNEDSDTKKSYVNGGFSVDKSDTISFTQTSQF
Method notes: Inhibitory activity against EAAC1 (EAAT3) in absence of L-glutamic acid.
Measurement kind: Ki (µM)
Write down the numeric answer in µM and omit the unit.

Data request: Can you look up the measured Ki of "O=C(O)c1nc(-c2ccccc2)oc1C(=O)O" for me?
Data returned: 75

----------
Entries and their Ks
Assay system: Excitatory amino acid transporter 3 (Rattus norvegicus) (UniProt P51907)
Method notes: Steady state transport rate by EAAC1 (EAAT3) in mammalian cells
Format: cell-based
Field: numeric (µM). Do not append units.

>  <Smiles str>
N[C@@H](CCC(=O)O)C(=O)O

>  <Assay system>
Excitatory amino acid transporter 3 (Rattus norvegicus) (UniProt P51907)

>  <Ks / µM>
5.1

$$$$

Data request: Find Ks (Excitatory amino acid transporter 3 (Rattus norvegicus) (UniProt P51907)) for the entry "N[C@@H](CCc1nc(C(=O)O)co1)C(=O)O"
Data returned: 100

Data request: Observed Ks on Excitatory amino acid transporter 3 (Rattus norvegicus) (UniProt P51907) for "N[C@@H](CC1=N[C@H](C(=O)O)CO1)C(=O)O" , please.
Data returned: 31

Data request: Recall the recorded Ks for "N[C@@H](CCC1=N[C@H](C(=O)O)CO1)C(=O)O" with Excitatory amino acid transporter 3 (Rattus norvegicus) (UniProt P51907) and state it.
Data returned: 730
